Test system: OATs
Test name: Bidirectional transport in MDCK cell monolayers with selective transporter inhibitors or substrates
Type: in vitro ADME, canine
Setup conditions: dog, with cimetidine 0.05 mM (50 μM), + Cimetidine 0.05 mM (OATs), read-out: ER
Parameter measured: efflux ratio at 120 min, 2 μM
Form: value (number only, do not type unit).

Query: efflux ratio at 120 min, 2 μM; subject: COc1ccc2c3c([nH]c2c1)C(C)=NCC3
1

* * *

Test name: Pharmacokinetics in rats after intravenous and intragastric administration
Setup conditions: both, Sprague-Dawley, rat, in vivo, iv, 3.3 mg/kg
k el values, listed per item
Units required after the number.

* COc1ccc2c(c1)[nH]c1c(C)nccc12 [Harmine] | 8.33e-05 s⁻¹

Now look at this entry.
Looking for the measured k el of COc1ccc2c3c([nH]c2c1)C(C)=NCC3 [Harmaline] , can you help?
6.39e-05 s⁻¹
